Here is a set of compounds with reported pKi for UniProt P35367, compiled from the literature.
Sequence (P35367 whole entry): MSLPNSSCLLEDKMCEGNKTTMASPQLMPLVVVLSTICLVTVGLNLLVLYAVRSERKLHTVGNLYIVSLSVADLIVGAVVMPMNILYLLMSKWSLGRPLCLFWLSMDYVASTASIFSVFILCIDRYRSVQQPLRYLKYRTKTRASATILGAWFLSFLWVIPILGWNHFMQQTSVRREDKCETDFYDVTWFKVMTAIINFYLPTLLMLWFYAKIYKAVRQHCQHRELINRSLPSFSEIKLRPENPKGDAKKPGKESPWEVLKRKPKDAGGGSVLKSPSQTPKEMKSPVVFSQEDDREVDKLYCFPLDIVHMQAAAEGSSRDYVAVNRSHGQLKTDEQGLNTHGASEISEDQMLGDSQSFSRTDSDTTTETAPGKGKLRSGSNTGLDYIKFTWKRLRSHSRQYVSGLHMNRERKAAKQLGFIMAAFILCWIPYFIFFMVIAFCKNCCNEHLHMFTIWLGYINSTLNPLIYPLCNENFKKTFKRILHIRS
Scale: pKi equals -log10([C]), with [C] in mol/L.

// solved cases for pKi follow
Please give the measured pKi for this compound: CC(C(=O)NC(N)=NCCCc1cnc[nH]1)c1ccccc1 (stereo not given)
5.46

// query: `NCCc1c[nH]c(-c2cccc(Cl)c2)n1`
5.75

// query: `NCCc1c[nH]c(-c2cccc(I)c2)n1`
5.75

Further cases:
Please give the measured pKi for this compound: `O=C(CCCCC1CCCCC1)N1CCC(c2c[nH]cn2)CC1`
5.59

// query: `CN(C)CCc1c[nH]c(CCC(c2ccccc2)c2ccccc2)n1`
6.40
